Provide the reported Kd of each item.
Molecular target: T1, PE9413, C-terminal biotinylated peptide mapping on Exon6 of the SCF molecule (SCF248) (C-terminal biotin)
T1 construct: also called C-terminal biotinylated PE9413; C-ter PE9413
T1 peptide: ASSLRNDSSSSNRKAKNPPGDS
Experiment: yeast-displayed scFv, flow cytometry titration of biotinylated peptide
Answers are plain numbers, in nM.

[[record]]
binder = "B114P scFv displayed on yeast (scFv, V domains shown, Aga2-anchored, VH-VL orientation; not shown: linker; SV5 tag) VH: QVQLVQSGAELKKPGSSVKISCKSSGYAFSSQWMNWVKQRPGQGLEWIGQIYPEDGDTHMNGKFKGKATLTADKSTSTAYMELSSLTSEDSAVYFCSSSNWDGSYWGQGTLVTVSS VL: DVVMTQSPLSLPVTLGQPASISCKSSQSLLEEDGNTYLNWLQQRPGQSPRRLIYLVDRLDSGVPDRFSGSGSGTDFTLKISRVEAEDVGVYYCWQGTDLPQTFGGGTKVEIK"
measured_result = 3.63


Then this binder:
Request: I have this binder here, G14P scFv displayed on yeast (scFv, V domains shown, Aga2-anchored, VH-VL orientation; not shown: linker; SV5 tag) VH: QVQLVQSGAELKKPGSSVKISCKSSGYAFSSQWMNWVKQRPGQGLEWIGQIYPGDGDTHYNDKFKGKATLTADKSTSTAYMELSSLTSEDSAVYFCSSSNWVGSYWGQGTLVTVSS VL: DVVMTQSPLSLPVTLGQPASISCKSSQSLLEEDGNTYLNWLQQRPGQSPRRLIYLVDRLDDGVPDRFSGSGSGTDFTLKISRVEAEDVGVYYCWQGTDLPQTFGGGTKVEIK , and I need its recorded Kd.
Result: 5.93
